Hello, the source for this data is ChEMBL document CHEMBL4020816, in case you need it.

Consider the following compounds and their measured pIC50 readings.
- tgt: Cannabinoid receptor 1 (Homo sapiens)
- procedure.summary: Antagonist activity at recombinant human CB1 receptor expressed in HEK293 cell membranes assessed as inhibition of CP55940-induced [35S]GTPgammaS binding preincubated for 1 hr followed by CP55940 addition and subsequent incubation with [35S]GTPgammaS measured after 30 mins by scintillation spectrometry
- Type: functional
- particulars: read-out: IC50
pIC50: −log10 of the molar value.

>  <compound>
Cc1c(C(=O)Nc2ccc(C(F)(F)F)cn2)nc(-c2ccc(Cl)cc2Cl)n1-c1ccc(OS(=O)(=O)CCC(F)(F)F)cc1

>  <pIC50>
9.21

$$$$
>  <compound>
CCCS(=O)(=O)Oc1ccc(-n2c(-c3ccc(Cl)cc3Cl)nc(C(=O)NN3CCCCC3)c2C)cc1

>  <pIC50>
8.74

$$$$
>  <compound>
Cc1c(C(=O)N[C@@H]2CCCC[C@H]2O)nc(-c2ccc(Cl)cc2Cl)n1-c1ccc(OS(=O)(=O)CCC(F)(F)F)cc1

>  <pIC50>
8.77

$$$$
>  <compound>
Cc1c(C(=O)NN2CCCC(O)C2)nc(-c2ccc(Cl)cc2Cl)n1-c1ccc(OS(=O)(=O)CCC(F)(F)F)cc1 (racemic)

>  <pIC50>
8.57

$$$$
>  <compound>
Cc1c(C(=O)NN2CCCCC2)nc(-c2ccc(Cl)cc2Cl)n1-c1ccc(OCCCF)cc1

>  <pIC50>
8.22

$$$$

* * *

- tgt: Cannabinoid receptor 1 (Homo sapiens, UniProt P21554)
- Sequence (P21554 whole entry): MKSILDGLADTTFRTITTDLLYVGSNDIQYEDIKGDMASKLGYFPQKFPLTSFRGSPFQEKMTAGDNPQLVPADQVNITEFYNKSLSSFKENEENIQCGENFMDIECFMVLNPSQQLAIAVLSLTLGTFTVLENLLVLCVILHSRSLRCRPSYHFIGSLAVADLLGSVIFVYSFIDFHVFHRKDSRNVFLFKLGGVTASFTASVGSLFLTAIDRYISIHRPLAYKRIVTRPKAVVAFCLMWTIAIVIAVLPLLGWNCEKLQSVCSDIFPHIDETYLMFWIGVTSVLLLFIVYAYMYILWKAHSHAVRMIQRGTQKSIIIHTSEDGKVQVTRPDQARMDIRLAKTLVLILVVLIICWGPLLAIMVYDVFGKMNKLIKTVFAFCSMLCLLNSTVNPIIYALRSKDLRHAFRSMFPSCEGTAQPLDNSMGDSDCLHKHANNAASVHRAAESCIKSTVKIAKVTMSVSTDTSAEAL
- procedure.summary: Displacement of [3H]CP55940 from recombinant human CB1 receptor expressed in beta-galactosidase expressing CHOK1 cell membranes after 60 mins by scintillation spectrometry
- particulars: read-out: Ki
// NB: equality with 0.3 nM counts as not satisfied; only Ki strictly below is satisfied

>  <compound>
Cc1c(C(=O)NN2CCCC(O)C2)nc(-c2ccc(Cl)cc2Cl)n1-c1ccc(OS(=O)(=O)CCC(F)(F)F)cc1 (racemic)

>  <tgt>
Cannabinoid receptor 1 (Homo sapiens, UniProt P21554)

>  <cat>
satisfied

$$$$
>  <compound>
CCCCS(=O)(=O)Oc1ccc(-n2c(-c3ccc(Cl)cc3Cl)nc(C(=O)NN3CCCCC3)c2C)cc1

>  <tgt>
Cannabinoid receptor 1 (Homo sapiens, UniProt P21554)

>  <cat>
satisfied

$$$$
>  <compound>
Cc1c(C(=O)NN2CCCCC2)nc(-c2ccc(Cl)cc2Cl)n1-c1ccc(OCCCC(F)(F)F)cc1

>  <tgt>
Cannabinoid receptor 1 (Homo sapiens, UniProt P21554)

>  <cat>
not satisfied

$$$$
>  <compound>
Cc1c(C(=O)N[C@H]2CCCC[C@H]2N)nc(-c2ccc(Cl)cc2Cl)n1-c1ccc(OS(=O)(=O)CCC(F)(F)F)cc1 (racemic)

>  <tgt>
Cannabinoid receptor 1 (Homo sapiens, UniProt P21554)

>  <cat>
not satisfied

$$$$
>  <compound>
Cc1c(C(=O)NN2CCCCC2)nc(-c2ccc(Cl)cc2Cl)n1-c1ccc(OS(=O)(=O)CCC(C)(C)C)cc1

>  <tgt>
Cannabinoid receptor 1 (Homo sapiens, UniProt P21554)

>  <cat>
not satisfied

$$$$
>  <compound>
Cc1c(C(=O)NN2CCCCC2)nc(-c2ccc(Cl)cc2Cl)n1-c1ccc(OS(=O)(=O)CCC(C)C)cc1

>  <tgt>
Cannabinoid receptor 1 (Homo sapiens, UniProt P21554)

>  <cat>
satisfied

$$$$

* * *

- tgt: Cannabinoid receptor 1 (Homo sapiens)
- procedure.summary: Displacement of [3H]CP55940 from recombinant human CB1 receptor expressed in beta-galactosidase expressing CHOK1 cell membranes assessed as kinetic rate index by measuring ratio of radioligand binding at 30 mins to 240 mins by scintillation spectrometry

>  <compound>
Cc1c(C(=O)NN2CCCCC2)nc(-c2ccc(Cl)cc2Cl)n1-c1ccc(OS(=O)(=O)CCCC(F)(F)F)cc1

>  <tgt>
Cannabinoid receptor 1 (Homo sapiens)

>  <Ratio>
0.93

$$$$
>  <compound>
Cc1ccc(NC(=O)c2nc(-c3ccc(Cl)cc3Cl)n(-c3ccc(OS(=O)(=O)CCC(F)(F)F)cc3)c2C)nc1

>  <tgt>
Cannabinoid receptor 1 (Homo sapiens)

>  <Ratio>
0.92

$$$$
>  <compound>
CCCCS(=O)(=O)Oc1ccc(-n2c(-c3ccc(Cl)cc3Cl)nc(C(=O)NN3CCCCC3)c2C)cc1

>  <tgt>
Cannabinoid receptor 1 (Homo sapiens)

>  <Ratio>
0.77

$$$$
>  <compound>
CCCS(=O)(=O)Oc1ccc(-n2c(-c3ccc(Cl)cc3Cl)nc(C(=O)NN3CCCCC3)c2C)cc1

>  <tgt>
Cannabinoid receptor 1 (Homo sapiens)

>  <Ratio>
0.59

$$$$
>  <compound>
Cc1c(C(=O)NN2CCCCC2)nc(-c2ccc(Cl)cc2Cl)n1-c1ccc(OCCCF)cc1

>  <tgt>
Cannabinoid receptor 1 (Homo sapiens)

>  <Ratio>
1.09

$$$$
>  <compound>
Cc1c(C(=O)Nc2ccc(OC(F)(F)F)cc2)nc(-c2ccc(Cl)cc2Cl)n1-c1ccc(OS(=O)(=O)CCC(F)(F)F)cc1

>  <tgt>
Cannabinoid receptor 1 (Homo sapiens)

>  <Ratio>
1.29

$$$$
>  <compound>
Cc1c(C(=O)NC2CCC(O)CC2)nc(-c2ccc(Cl)cc2Cl)n1-c1ccc(OS(=O)(=O)CCC(F)(F)F)cc1 (mixture of isomers)

>  <tgt>
Cannabinoid receptor 1 (Homo sapiens)

>  <Ratio>
0.88

$$$$
>  <compound>
Cc1c(C(=O)NN2CCCCC2)nc(-c2ccc(Cl)cc2Cl)n1-c1ccc(OS(=O)(=O)CCC(C)(C)C)cc1

>  <tgt>
Cannabinoid receptor 1 (Homo sapiens)

>  <Ratio>
0.73

$$$$
>  <compound>
Cc1c(C(=O)NN2CCCCC2)nc(-c2ccc(Cl)cc2Cl)n1-c1ccc(OCCC(F)(F)F)cc1

>  <tgt>
Cannabinoid receptor 1 (Homo sapiens)

>  <Ratio>
0.9

$$$$
>  <compound>
Cc1c(C(=O)N[C@H]2CCC[C@H](O)C2)nc(-c2ccc(Cl)cc2Cl)n1-c1ccc(OS(=O)(=O)CCC(F)(F)F)cc1 (racemic)

>  <tgt>
Cannabinoid receptor 1 (Homo sapiens)

>  <Ratio>
0.89

$$$$
>  <compound>
Cc1c(C(=O)NN2CCCC(O)C2)nc(-c2ccc(Cl)cc2Cl)n1-c1ccc(OS(=O)(=O)CCC(F)(F)F)cc1 (racemic)

>  <tgt>
Cannabinoid receptor 1 (Homo sapiens)

>  <Ratio>
0.71

$$$$
>  <compound>
Cc1c(C(=O)N[C@@H]2CCCC[C@H]2O)nc(-c2ccc(Cl)cc2Cl)n1-c1ccc(OS(=O)(=O)CCC(F)(F)F)cc1

>  <tgt>
Cannabinoid receptor 1 (Homo sapiens)

>  <Ratio>
0.74

$$$$
>  <compound>
Cc1c(C(=O)NN2CCCCC2)nc(-c2ccc(Cl)cc2Cl)n1-c1ccc(OS(=O)(=O)CCCF)cc1

>  <tgt>
Cannabinoid receptor 1 (Homo sapiens)

>  <Ratio>
0.88

$$$$
>  <compound>
Cc1c(C(=O)N[C@H]2CCCC[C@H]2N)nc(-c2ccc(Cl)cc2Cl)n1-c1ccc(OS(=O)(=O)CCC(F)(F)F)cc1 (racemic)

>  <tgt>
Cannabinoid receptor 1 (Homo sapiens)

>  <Ratio>
0.79

$$$$
>  <compound>
Cc1c(C(=O)NN2CCCCC2)nc(-c2ccc(Cl)cc2Cl)n1-c1ccc(OS(=O)(=O)CCC(F)(F)F)cc1

>  <tgt>
Cannabinoid receptor 1 (Homo sapiens)

>  <Ratio>
1.02

$$$$
>  <compound>
Cc1c(C(=O)N[C@@H]2CCCC[C@@H]2O)nc(-c2ccc(Cl)cc2Cl)n1-c1ccc(OS(=O)(=O)CCC(F)(F)F)cc1

>  <tgt>
Cannabinoid receptor 1 (Homo sapiens)

>  <Ratio>
1.06

$$$$
>  <compound>
Cc1c(C(=O)NN2CCCCC2)nc(-c2ccc(Cl)cc2Cl)n1-c1ccc(OS(=O)(=O)CCC(C)C)cc1

>  <tgt>
Cannabinoid receptor 1 (Homo sapiens)

>  <Ratio>
1.02

$$$$
>  <compound>
Cc1c(C(=O)Nc2ccc(C(F)(F)F)cn2)nc(-c2ccc(Cl)cc2Cl)n1-c1ccc(OS(=O)(=O)CCC(F)(F)F)cc1

>  <tgt>
Cannabinoid receptor 1 (Homo sapiens)

>  <Ratio>
1.39

$$$$
>  <compound>
Cc1c(C(=O)Nc2ccc(C(F)(F)F)nc2)nc(-c2ccc(Cl)cc2Cl)n1-c1ccc(OS(=O)(=O)CCC(F)(F)F)cc1

>  <tgt>
Cannabinoid receptor 1 (Homo sapiens)

>  <Ratio>
1.12

$$$$
>  <compound>
Cc1c(C(=O)Nc2ccc(F)nc2)nc(-c2ccc(Cl)cc2Cl)n1-c1ccc(OS(=O)(=O)CCC(F)(F)F)cc1

>  <tgt>
Cannabinoid receptor 1 (Homo sapiens)

>  <Ratio>
0.7

$$$$
>  <compound>
Cc1c(C(=O)NN2CCCCC2)nc(-c2ccc(Cl)cc2Cl)n1-c1ccc(OCCCC(F)(F)F)cc1

>  <tgt>
Cannabinoid receptor 1 (Homo sapiens)

>  <Ratio>
0.8

$$$$
>  <compound>
Cc1c(C(=O)N[C@@H]2CCCC[C@@H]2N(C)C)nc(-c2ccc(Cl)cc2Cl)n1-c1ccc(OS(=O)(=O)CCC(F)(F)F)cc1 (racemic)

>  <tgt>
Cannabinoid receptor 1 (Homo sapiens)

>  <Ratio>
0.74

$$$$
